- target: Bifunctional protein GlmU (Mycobacterium tuberculosis (strain ATCC 25618 / H37Rv)) (UniProt P9WMN3)
- Sequence (P9WMN3 whole entry, looked up): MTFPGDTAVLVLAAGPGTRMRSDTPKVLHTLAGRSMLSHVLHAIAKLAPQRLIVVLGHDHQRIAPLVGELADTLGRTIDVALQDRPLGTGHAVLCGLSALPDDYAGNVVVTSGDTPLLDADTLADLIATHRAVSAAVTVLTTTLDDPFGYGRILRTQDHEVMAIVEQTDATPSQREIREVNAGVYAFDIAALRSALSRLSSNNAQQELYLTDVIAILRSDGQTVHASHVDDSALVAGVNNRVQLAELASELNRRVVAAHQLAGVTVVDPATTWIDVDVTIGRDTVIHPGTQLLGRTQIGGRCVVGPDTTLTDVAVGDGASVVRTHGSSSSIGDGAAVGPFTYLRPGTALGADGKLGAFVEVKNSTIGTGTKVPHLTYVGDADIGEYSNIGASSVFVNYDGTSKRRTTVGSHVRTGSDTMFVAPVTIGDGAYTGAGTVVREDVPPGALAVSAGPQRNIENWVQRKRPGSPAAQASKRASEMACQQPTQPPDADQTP
- test: inhibition of mycobacterial GlmU enzyme – biochemical, glucosamine-1-phosphate acetyltransferase (AID 1376);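 further: 0% = complete reaction with vehicle and 100% = reaction without substrate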
- recorded-conditions: M. tuberculosis GlmU acetyltransferase enzyme assay;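 tested at 30 µM in the primary screen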
The whole screen tested about 220,000 compounds, of which about 530 (0.24%) were called active. No stated cut-off is given here; in the data, active means inhibition above about 13%; inconclusive means no clear call, values can overlap the other calls; inactive means below that. What follows is part of a selection rich in actives, with near analogues and random picks from the rest. Results with a measured potency or affinity are listed apart.
Returns: one label drawn from active, inactive

Example cases with answers are listed next.
1. CC(C)CC12CN3CCN(CC(C3)/C1=N/O)C2 | inactive
2. Cc1cccc(C(=O)NC(Oc2ccccc2)C(Cl)(Cl)Cl)c1 (stereo not given) | inactive
3. CCCCNc1ccc(C(=O)O)cc1 | inactive
4. O=C(NC(Oc1ccccc1)C(Cl)(Cl)Cl)c1ccccc1 (stereo not given) | inactive
5. Cc1ccccc1NC(=O)Cn1nc(-c2ccccc2)nc1-c1ccccc1 | inactive

Which outcome was assigned to `O=C(NC(=S)NNC(=O)c1ccccc1F)c1cccnc1` in this test?
inactive

Which outcome was assigned to Cc1ccc(N2CC(C(=O)NCCC(C)C)CC2=O)cc1 (stereo not given) in this test?
inactive

Which outcome was assigned to `O=C(CCN1CCCC1)c1cccs1` in this test?
inactive

----------
- target: Bifunctional protein GlmU (Mycobacterium tuberculosis (strain ATCC 25618 / H37Rv)) (UniProt P9WMN3)
- test: inhibition of mycobacterial GlmU enzyme – biochemical, glucosamine-1-phosphate acetyltransferase (AID 1376);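 further: 0% = complete reaction with vehicle and 100% = reaction without substrate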
- recorded-conditions: M. tuberculosis GlmU acetyltransferase enzyme assay; hits give high values;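 tested at 30 µM in the primary screen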
About 530 (0.24%) of roughly 220,000 compounds were called active. This is one part of a sample in which actives are shown more often than they occur. Results with a measured potency or affinity are listed apart.
observation-type: inhibition (%)
Kindly answer with a numeric value in %, unit omitted.

1. Cn1c(=O)c2c(SCC(=O)NCCc3ccccc3)nc(C3CC3)nc2n(C)c1=O | 1.2
2. Oc1ccc(/C=N/N(Cc2ccccc2)c2ccccc2)c(O)c1O | 13.5
3. COC(=O)c1sc(N2C(=O)C(=O)/C(=C(/O)c3ccc(C)cc3)C2c2ccco2)nc1C (stereo not given) | -0.75
4. CCOc1ccc(-c2cc3cc(OC)c(OC)cc3c(C)n2)cc1 | -1.9
5. O=C(/C(=N/N=C/c1ccc(O)c(O)c1O)c1ccccc1)c1ccccc1 | 7.49
6. COc1ccc(/C=N/N(Cc2ccccc2)c2ccccc2)cc1O | 6.68
7. CC(=O)NC1(C(F)(F)F)C(=O)Nc2c1c(=O)[nH]c(=O)n2CCc1ccccc1 (stereo not given) | 1.88
8. CCOC(=O)C1=C(C)NC(=O)NC1c1c(C)nn(-c2ccccc2)c1Cl (stereo not given) | 15.1

Query: inhibition; subject: `Cc1cc2c(o1)CC(C)(C)CC2=O`
1.91

Query: inhibition; subject: CCOC(=O)C1=C(C)N(C)C(=O)NC1c1c(C)nn(-c2ccc(C)cc2)c1Cl (stereo not given)
3.87

----------
Consider the following molecules and their measured inhibition readings.
- target: Bifunctional protein GlmU (Mycobacterium tuberculosis (strain ATCC 25618 / H37Rv))
- test: inhibition of mycobacterial GlmU enzyme – biochemical, glucosamine-1-phosphate acetyltransferase (AID 1376);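 further: 0% = complete reaction with vehicle and 100% = reaction without substrate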
- recorded-conditions: M. tuberculosis GlmU acetyltransferase enzyme assay; hits give high values;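 tested at 30 µM in the primary screen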
About 530 (0.24%) of roughly 220,000 compounds were called active. What follows is part of a selection rich in actives, with near analogues and random picks from the rest. Measured potencies and affinities stand elsewhere.
Kindly answer with a numeric value in %, unit omitted.

Known results for molecules:
1. O=C(O)C1C2C=CC(C2)C1C(=O)N1CCOCC1 (stereo unspecified) | -2.63
2. O=C(Nc1ccc(SC(F)F)cc1)c1ccc(F)cc1 | 2.04
3. C/C(=N\OCc1ccc(C#N)cc1)c1ccccc1 | 2.31
4. Cc1c(-c2ccco2)[n+](=O)c2c(n1[O-])CCC2 | 14.9
5. O=C(CSc1nnc(Cc2cccs2)n1-c1ccc(Cl)cc1)NCc1ccc2c(c1)OCO2 | 12.9

Query: inhibition; subject: `COc1ccc(NC(=O)N(Cc2cccs2)Cc2cc3cc4c(cc3[nH]c2=O)OCO4)cc1`
1.28

Query: inhibition; subject: O=C(O)C1C2C=CC(C3CC23)C1C(=O)O (stereo unspecified)
1.12

Query: inhibition; subject: `CCC(=O)NCc1c(Cl)cccc1-n1cccc1`
-2.25
